B1: EFHC1 (parent)
chain: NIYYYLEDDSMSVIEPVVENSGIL

Variants of: B1
Assay: protein stability index of a GFP-peptide fusion (GPS, HEK-293T) (PSI 1-6); higher = more stable;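 further: lentivirally expressed fusions sorted by FACS into six bins by GFP to DsRed ratio, PSI derived from sequencing read proportions per bin multiplied by bin number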
Conditions: c terminus: a fixed tail appended
Kindly state protein stability index for each of the entries shown.
One number for each entry.

INSERT INTO results (variant_notation, endpoint_label, measured) VALUES
  ('E7W', 'protein stability index', 1.41),
  ('N20W', 'protein stability index', 2.37),
  ('L6D', 'protein stability index', 3.26);

Below are some variants; for each one, tell me its protein stability index.
1. V17P
2. Y4L
3. D8A

Result:
2.85
1.42
1.94
